Origin of values: patent US5225607A

# System: Myzus persicae
# EXPERIMENT NOTES: Insecticidal test, Myzus persicae (aphids), contact
# Type: in vivo
# CONDITION DESCRIPTION: 72 h, 500 ppm, Chinese Cabbage leaf, 3 days, read-out: grading of mortality, MP
Entries annotated with measured mortality at 500 ppm
REPORTED PROPERTY: mortality at 500 ppm

{"COMPOUND": "CCOc1c(F)cc(C(COCc2ccc(F)c(Oc3ccccc3)c2)C(F)(F)F)cc1F (racemic)", "STUDY SYSTEM": "Myzus persicae", "REPORTED PROPERTY": "mortality at 500 ppm", "RESULT": "50 to 79%"}
{"COMPOUND": "CCOc1ccc(C(O)(COCc2cccc(-c3ccccc3)c2C)C(F)(F)F)cc1 (centres unmarked)", "STUDY SYSTEM": "Myzus persicae", "REPORTED PROPERTY": "mortality at 500 ppm", "RESULT": "< 50%"}
{"COMPOUND": "Fc1ccc(COC=C(c2ccc3c(c2)CCC3)C(F)(F)F)cc1Oc1ccccc1", "STUDY SYSTEM": "Myzus persicae", "REPORTED PROPERTY": "mortality at 500 ppm", "RESULT": "< 50%"}
{"COMPOUND": "CCOc1ccc(C(Cl)(COCc2cccc(-c3ccccc3)c2C)C(F)(F)F)cc1 (centres unmarked)", "STUDY SYSTEM": "Myzus persicae", "REPORTED PROPERTY": "mortality at 500 ppm", "RESULT": "< 50%"}
{"COMPOUND": "FC(F)(F)C(COCc1cccc(Oc2ccccc2)c1)c1ccc2c(c1)OCO2 (centres unmarked)", "STUDY SYSTEM": "Myzus persicae", "REPORTED PROPERTY": "mortality at 500 ppm", "RESULT": "80 to 100%"}
{"COMPOUND": "FC(F)(F)Oc1ccc(C(F)(COCc2cccc(Oc3ccccc3)c2)C(F)(F)F)cc1 (centres unmarked)", "STUDY SYSTEM": "Myzus persicae", "REPORTED PROPERTY": "mortality at 500 ppm", "RESULT": "80 to 100%"}
{"COMPOUND": "CCOc1ccc(C(COCc2c(F)c(F)c(C)c(F)c2F)C(F)(F)F)cc1 (centres unmarked)", "STUDY SYSTEM": "Myzus persicae", "REPORTED PROPERTY": "mortality at 500 ppm", "RESULT": "50 to 79%"}
{"COMPOUND": "Fc1ccc(COCC(c2ccc(Cl)cc2)C(F)(F)F)cc1Oc1ccccc1 (centres unmarked)", "STUDY SYSTEM": "Myzus persicae", "REPORTED PROPERTY": "mortality at 500 ppm", "RESULT": "80 to 100%"}
{"COMPOUND": "FC(F)(F)C(Cl)(COCc1cccc(Oc2ccccc2)c1)c1ccc2c(c1)OCO2 (centres unmarked)", "STUDY SYSTEM": "Myzus persicae", "REPORTED PROPERTY": "mortality at 500 ppm", "RESULT": "< 50%"}
{"COMPOUND": "FC(F)(F)C(COCc1cccc(Oc2ccc(Cl)cc2)c1)c1ccc2c(c1)OCO2 (centres unmarked)", "STUDY SYSTEM": "Myzus persicae", "REPORTED PROPERTY": "mortality at 500 ppm", "RESULT": "50 to 79%"}
{"COMPOUND": "CCOc1c(F)cc(C(COCc2cccc(Oc3ccc(Cl)cc3)c2)C(F)(F)F)cc1F (racemic)", "STUDY SYSTEM": "Myzus persicae", "REPORTED PROPERTY": "mortality at 500 ppm", "RESULT": "80 to 100%"}
{"COMPOUND": "CCOc1ccc(C(COCc2ccc(F)c(Oc3ccc(Cl)cc3)c2)C(F)(F)F)cc1 (centres unmarked)", "STUDY SYSTEM": "Myzus persicae", "REPORTED PROPERTY": "mortality at 500 ppm", "RESULT": "80 to 100%"}
{"COMPOUND": "CCOc1ccc(C(COCc2ccc(F)c(Oc3ccc(Br)cc3)c2)C(F)(F)F)cc1 (centres unmarked)", "STUDY SYSTEM": "Myzus persicae", "REPORTED PROPERTY": "mortality at 500 ppm", "RESULT": "80 to 100%"}
{"COMPOUND": "Fc1ccc(COCC(F)(c2ccc(Br)cc2)C(F)(F)F)cc1Oc1ccccc1 (centres unmarked)", "STUDY SYSTEM": "Myzus persicae", "REPORTED PROPERTY": "mortality at 500 ppm", "RESULT": "80 to 100%"}
{"COMPOUND": "OC(COCc1cccc(Oc2ccccc2)c1)(c1ccc(OC(F)(F)F)cc1)C(F)(F)F (centres unmarked)", "STUDY SYSTEM": "Myzus persicae", "REPORTED PROPERTY": "mortality at 500 ppm", "RESULT": "< 50%"}
{"COMPOUND": "CCOc1ccc(C(Cl)(COCc2ccc(F)c(Oc3ccc(Br)cc3)c2)C(F)(F)F)cc1 (centres unmarked)", "STUDY SYSTEM": "Myzus persicae", "REPORTED PROPERTY": "mortality at 500 ppm", "RESULT": "80 to 100%"}
{"COMPOUND": "CC(C)(C)c1ccc(C(COCc2ccc(F)c(Oc3ccccc3)c2)C(F)(F)F)cc1 (centres unmarked)", "STUDY SYSTEM": "Myzus persicae", "REPORTED PROPERTY": "mortality at 500 ppm", "RESULT": "80 to 100%"}

----------
# Test system: Myzus persicae
# EXPERIMENT NOTES: Insecticidal test, Myzus persicae (aphids), contact
# Assay type: in vivo
# CONDITION DESCRIPTION: 72 h, 500 ppm, Chinese Cabbage leaf, 3 days, read-out: grading of mortality, MP

{"MOLECULE": "COc1ccc(C(COCc2cccc(Oc3ccccc3)c2)C(F)(F)F)cc1 (stereo not shown)", "mortality at 500 ppm": "< 50%"}
{"MOLECULE": "CCOc1ccc(C(COCc2cccc(Cc3ccccc3)c2)C(F)(F)F)cc1 (stereo not shown)", "mortality at 500 ppm": "80 to 100%"}
{"MOLECULE": "Fc1ccc(COC=C(c2ccc(Cl)cc2)C(F)(F)F)cc1Oc1ccccc1", "mortality at 500 ppm": "< 50%"}
{"MOLECULE": "CCOc1c(F)cc(C(O)(COCc2cccc(Oc3ccccc3)c2)C(F)(F)F)cc1F (racemic)", "mortality at 500 ppm": "< 50%"}

----------
Entries annotated with measured mortality at 500 ppm
# System: Myzus persicae
# EXPERIMENT NOTES: Insecticidal test, Myzus persicae (aphids), contact
# Assay type: in vivo
# CONDITION DESCRIPTION: 72 h, 500 ppm, Chinese Cabbage leaf, 3 days, read-out: grading of mortality, MP
REPORTED PROPERTY: mortality at 500 ppm

{"MOLECULE": "CCOc1ccc(C(Cl)(COCc2cccc(Oc3ccccc3)n2)C(F)(F)F)cc1 (centres unmarked)", "RESULT": "80 to 100%"}
{"MOLECULE": "FC(F)(F)C(Cl)(COCc1cccc(Oc2ccc(Cl)cc2)c1)c1ccc2c(c1)OCO2 (centres unmarked)", "RESULT": "< 50%"}
{"MOLECULE": "FC(F)(F)c1ccc(C(F)(COCc2cccc(Oc3ccccc3)c2)C(F)(F)F)cc1 (centres unmarked)", "RESULT": "80 to 100%"}
{"MOLECULE": "CCOc1ccc(C(Cl)(COCc2ccc(F)c(Oc3ccc(Cl)cc3)c2)C(F)(F)F)cc1 (centres unmarked)", "RESULT": "80 to 100%"}
{"MOLECULE": "CCOc1ccc(C(F)(COCc2cccc(-c3ccccc3)c2C)C(F)(F)F)cc1 (centres unmarked)", "RESULT": "80 to 100%"}
{"MOLECULE": "CCOc1ccc(C(O)(COCc2ccc(F)c(Oc3ccc(Br)cc3)c2)C(F)(F)F)cc1 (centres unmarked)", "RESULT": "< 50%"}
{"MOLECULE": "CCOc1ccc([C@H](CO[C@H](C)c2cccc(Oc3ccccc3)c2)C(F)(F)F)cc1 (racemic)", "RESULT": "80 to 100%"}
{"MOLECULE": "CCCc1ccc(C(=COCc2ccc(F)c(Oc3ccccc3)c2)C(F)(F)F)cc1", "RESULT": "< 50%"}

----------
Entries annotated with measured mortality at 250 ppm
# System: Diabrotica balteata
# EXPERIMENT NOTES: Insecticidal test, Diabrotica balteata (rootworm larvae), residual
# Format: in vivo
# CONDITION DESCRIPTION: 72 h, 250 ppm, filter paper/maize seed, 3 days, read-out: grading of mortality, DB

{"COMPOUND": "CCOc1ccc(C(COCc2cccc(Oc3ccc(Cl)cc3)c2)C(F)(F)F)cc1 (centres unmarked)", "mortality at 250 ppm": "80 to 100%"}
{"COMPOUND": "CCOc1ccc(C(COCc2cccc(Oc3ccc(F)cc3F)c2)C(F)(F)F)cc1 (centres unmarked)", "mortality at 250 ppm": "80 to 100%"}
{"COMPOUND": "CCOc1ccc(C(F)(COCc2cccc(Oc3ccc(Cl)cc3)c2)C(F)(F)F)cc1 (centres unmarked)", "mortality at 250 ppm": "< 50%"}
{"COMPOUND": "Fc1ccc(COCC(c2ccc3c(c2)CCC3)C(F)(F)F)cc1Oc1ccccc1 (centres unmarked)", "mortality at 250 ppm": "80 to 100%"}
{"COMPOUND": "CCOc1ccc(C(Cl)(COCc2ccc(F)c(Oc3ccccc3)c2)C(F)(F)F)cc1 (centres unmarked)", "mortality at 250 ppm": "80 to 100%"}
{"COMPOUND": "CCOc1ccc(C(Cl)(COCc2cccc(Oc3ccc(Cl)cc3)c2)C(F)(F)F)cc1 (centres unmarked)", "mortality at 250 ppm": "50 to 79%"}
{"COMPOUND": "CCOc1ccc(C(COCc2ccc(F)c(Oc3ccccc3)c2)(OC)C(F)(F)F)cc1 (centres unmarked)", "mortality at 250 ppm": "80 to 100%"}
{"COMPOUND": "OC(COCc1cccc(Oc2ccc(Cl)cc2)c1)(c1ccc(OC(F)(F)F)cc1)C(F)(F)F (centres unmarked)", "mortality at 250 ppm": "< 50%"}
